Hey, just so you know, these numbers are from patent US20140288040A1.

assayed system: HCV NS3 protease (full length NS34a) (Hepatitis C virus genotype 1b, UniProt P26663)
Construct: The protease activity of the full length NS34a was measured using a FRET-based assay; made in house
Sequence (P26663 1658-1711): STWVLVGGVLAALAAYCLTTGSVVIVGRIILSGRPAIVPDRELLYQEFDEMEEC
Sequence (P26663 1027-1657): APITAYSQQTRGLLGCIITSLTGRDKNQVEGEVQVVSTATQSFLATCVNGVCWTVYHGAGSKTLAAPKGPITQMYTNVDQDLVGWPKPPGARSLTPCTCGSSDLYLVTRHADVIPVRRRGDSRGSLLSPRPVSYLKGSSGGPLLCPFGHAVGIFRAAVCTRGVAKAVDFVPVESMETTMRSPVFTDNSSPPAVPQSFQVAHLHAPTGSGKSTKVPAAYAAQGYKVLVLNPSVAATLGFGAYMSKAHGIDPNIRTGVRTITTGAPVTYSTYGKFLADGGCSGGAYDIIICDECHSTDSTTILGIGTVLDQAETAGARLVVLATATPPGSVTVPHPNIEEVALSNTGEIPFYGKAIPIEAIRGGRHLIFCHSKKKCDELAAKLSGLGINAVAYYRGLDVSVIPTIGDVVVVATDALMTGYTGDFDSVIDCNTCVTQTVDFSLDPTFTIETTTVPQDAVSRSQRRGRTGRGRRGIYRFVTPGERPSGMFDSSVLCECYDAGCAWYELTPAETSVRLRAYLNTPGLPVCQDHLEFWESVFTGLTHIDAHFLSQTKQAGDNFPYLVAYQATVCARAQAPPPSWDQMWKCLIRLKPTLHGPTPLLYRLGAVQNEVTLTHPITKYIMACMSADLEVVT
protocol description: HCV NS3 protease assay (FRET, full length NS34a)
Assay type: biochemical
condition: protease activity of full length NS34a, FRET peptide substrate; read-out: Activity IC50
property label: IC50 (nM)

compound	property label	unit of measure	test result
CC[C@@H](N[C@H](C)CC(N)=O)c1ccc(Cl)c(Oc2ccc(C#N)cc2)c1F	IC50	nM	1500
CC[C@@H](N)c1ccc(Cl)c(Oc2ccc(F)c(C(N)=O)c2)c1F	IC50	nM	2200
N[C@H]1CC[C@@H](NCc2cccc(Oc3ccccc3)c2)CC1	IC50	nM	10000

(P) CCc1ncc(CNC(CC)c2ccc(F)c(Oc3ccccc3)c2F)[nH]1 (stereo not drawn)
(Q) C[C@@H](CC(N)=O)N[C@H](C)c1ccc(Cl)c(Oc2ccccc2)c1F
Which gives the smaller IC50 number: P or Q ? # answer = label of selected item
Q
(Q: 1000 nM, P: 9700 nM)

====

Measured EC50 of individual entries
System: HCV subgenomic replicon in Huh-7 cells
protocol description: Replicon assay, EC50 luciferase readout
Assay type: cell-based, hepatitis C virus (HCV)
condition: Hepatitis C virus, Huh-7, 72 h, read-out: Activity EC50 (μM) (EC50 luciferase readout), Huh-7 replicon cells, 72 h; single value, or second value of a pair x:y
Field: numeric (µM). Do not append units.

compound	EC50 (µM)
CC[C@@H](N[C@@H](C)CC(N)=O)c1ccc(Cl)c(Oc2ccc(C#N)c(OC)c2)c1F [Example 210]	0.2
C[C@@H](CC(N)=O)N[C@@H](c1ccc(Cl)c(Oc2ccc(N)nc2)c1F)C1CC1.Cl [Example 454]	0.16
CC[C@@H](N[C@@H](C)CC(N)=O)c1ccc(Cl)c(Oc2ccc(C(N)=O)cc2)c1F.Cl [Example 444]	0.82

What value of EC50 has been reported for the following compound? CC[C@@H](N[C@@H](C)CC(N)=O)c1ccc(Cl)c(Oc2ccc(CC#N)cc2)c1F [Example 211]
0.066

====

assayed system: HCV NS3 protease (full length NS34a) (Hepatitis C virus genotype 1b, UniProt P26663)
Construct: The protease activity of the full length NS34a was measured using a FRET-based assay; made in house
protocol description: HCV NS3 protease assay (FRET, full length NS34a)
Assay type: biochemical
condition: protease activity of full length NS34a, FRET peptide substrate; read-out: Activity IC50
property label: IC50 (nM)

Past entries and their recorded results:
compound	unit of measure	IC50
N[C@@H](CCO)c1ccc(Cl)c(Oc2ccccc2)c1F [Example 338]	nM	2000
NC(c1ccc(F)c(Oc2ccccc2)c1F)C1CCOCC1 (stereo not drawn) [Example 41]	nM	7100
CC[C@@H](N[C@@H](C)CC(=O)NC1COC1)c1ccc(Cl)c(Oc2ccccc2)c1F [Example 222]	nM	370

(a) CS(=O)(=O)Nc1cccc(Oc2c(F)ccc(CN[C@H]3CC[C@@H](N)CC3)c2F)c1 [Example 285]
(b) CCC(NCc1c[nH]c2ccccc12)c1ccc(F)c(Oc2ccccc2)c1F (stereo not drawn) [Example 31]
Parameter metric = IC50. Return the lower-valued option from a and b . Field: selected label. Fill in the label of the entry you choose.
a
(a: 2400 nM, b: 7100 nM)

====

assayed system: HCV NS3 protease (full length NS34a) (Hepatitis C virus genotype 1b)
Construct: The protease activity of the full length NS34a was measured using a FRET-based assay; made in house
protocol description: HCV NS3 protease assay (FRET, full length NS34a)
Type: biochemical
condition: protease activity of full length NS34a, FRET peptide substrate; read-out: Activity IC50
pIC50: −log10 of the molar value.
property label: pIC50

compound	property label	test result
CC[C@@H](N[C@H](C)CC(N)=O)c1ccc(Cl)c(Oc2ccc(C#N)c(OC)c2)c1F [Example 209]	pIC50	5.31

(A) CC[C@H](Nc1ncc(CN)cn1)c1ccc(Cl)c(Oc2ccccc2)c1F [Example 330]
(B) CC[C@@H](N)c1ccc(Cl)c(Oc2cccc(C#N)c2)c1F [Example 199]
Among A and B , whose measured pIC50 is the smaller figure? Answer by stating the label of the chosen item.
B

====

assayed system: HCV NS3 protease (full length NS34a) (Hepatitis C virus genotype 1b)
Construct: The protease activity of the full length NS34a was measured using a FRET-based assay; made in house
protocol description: HCV NS3 protease assay (FRET, full length NS34a)
Format: biochemical
condition: protease activity of full length NS34a, FRET peptide substrate; read-out: Activity IC50
pIC50: −log10 of the molar value. Structures can show the parent of a compound that is named as a salt.
property label: pIC50

compound	test result
CC[C@H](N[C@@H](C)CC(N)=O)c1ccc(Cl)c(Oc2ccccc2)c1Cl	5.74
CC[C@@H](N[C@@H](C)C(N)=O)c1ccc(Cl)c(Oc2ccccc2)c1F [Example 54, hydrochloride]	5.85
CC[C@H](N[C@H](C)CO)c1ccc(F)c(Oc2ccccc2)c1F	5.68

(P) C[C@@H](CC(N)=O)NCc1ccc(Cl)c(Oc2ccccc2)c1F
(Q) CC[C@H](N)c1ccc(Cl)c(Oc2cccc(C(=O)N3CCCC3)c2)c1F
(R) CCC(NC[C@@H](O)CO)c1ccc(F)c(Oc2ccccc2)c1F (some centres unmarked)
Sort (3 compounds) by pIC50: min first. Please write the labels in the order that was asked for.
R, P, Q

====

assayed system: HCV NS3 protease (full length NS34a) (Hepatitis C virus genotype 1b)
Construct: The protease activity of the full length NS34a was measured using a FRET-based assay; made in house
protocol description: HCV NS3 protease assay (FRET, full length NS34a)
Format: biochemical
condition: protease activity of full length NS34a, FRET peptide substrate; read-out: Activity IC50
Where a name gives a salt, the structure may show the parent alone.
property label: IC50 (µM)

In the examples that follow, each entry is paired with its recorded IC50.
compound	assayed system	property label	unit of measure	test result
CC[C@@H](N[C@@H](C)CC(N)=O)c1ccc(Cl)c(Oc2ccc(NC(C)=O)c(C)c2)c1F [Example 244]	HCV NS3 protease (full length NS34a) (Hepatitis C virus genotype 1b)	IC50	µM	0.47
CC[C@@H](N[C@@H](C)CC(=O)NCCNCc1ccccc1)c1ccc(Cl)c(Oc2ccccc2)c1F [Example 265]	HCV NS3 protease (full length NS34a) (Hepatitis C virus genotype 1b)	IC50	µM	1.1
Fc1ccc(CNc2ccncc2)c(F)c1Oc1ccccc1 [Example 110]	HCV NS3 protease (full length NS34a) (Hepatitis C virus genotype 1b)	IC50	µM	2.6
CC[C@@H](NCCC(N)=O)c1ccc(F)c(Oc2ccccc2)c1F [Example 122]	HCV NS3 protease (full length NS34a) (Hepatitis C virus genotype 1b)	IC50	µM	1
CC[C@@H](Nc1ncc(CN)cn1)c1ccc(Cl)c(Oc2ccccc2)c1F [Example 8, hydrochloride]	HCV NS3 protease (full length NS34a) (Hepatitis C virus genotype 1b)	IC50	µM	0.33
C[C@H](CC(=O)NCCN)N[C@H](C)c1ccc(Cl)c(Oc2ccccc2)c1F [Example 340]	HCV NS3 protease (full length NS34a) (Hepatitis C virus genotype 1b)	IC50	µM	0.08
CC[C@@H](N[C@@H](C)CC(N)=O)c1ccc(Cl)c(Oc2ccc(N)c(OC)c2)c1F [Example 255]	HCV NS3 protease (full length NS34a) (Hepatitis C virus genotype 1b)	IC50	µM	0.23
CC[C@@H](N)c1ccc(Cl)c(Oc2ccccc2)c1Cl [Example 262]	HCV NS3 protease (full length NS34a) (Hepatitis C virus genotype 1b)	IC50	µM	5.9
CC[C@@H](N[C@@H](C)CC(N)=O)c1ccc(Cl)c(Oc2cccc(CNS(C)(=O)=O)c2)c1F [Example 216]	HCV NS3 protease (full length NS34a) (Hepatitis C virus genotype 1b)	IC50	µM	0.97
CC[C@@H](N[C@@H](C)CC(N)=O)c1ccc(Cl)c(Oc2ccc(C#N)c(C)c2)c1F [Example 237]	HCV NS3 protease (full length NS34a) (Hepatitis C virus genotype 1b)	IC50	µM	0.087

(1) CC[C@@H](N)c1ccc(Cl)c(Oc2ccc([N+](=O)[O-])cc2)c1F [Example 197]
(2) CC[C@@H](N)c1ccc(Cl)c(Oc2ccc(N(C)C)cc2)c1F [Example 182]
Which of the two gives a bigger number for IC50: 1 or 2 ? Identify your pick by its label.
2
(2: 5.7 µM, 1: 2.6 µM)

====

assayed system: HCV NS3 protease (full length NS34a) (Hepatitis C virus genotype 1b)
Construct: The protease activity of the full length NS34a was measured using a FRET-based assay; made in house
protocol description: HCV NS3 protease assay (FRET, full length NS34a)
Type: biochemical
condition: protease activity of full length NS34a, FRET peptide substrate; read-out: Activity IC50
Counter-ions that a name gives are not always drawn.
property label: IC50 (µM)

molecule	IC50 / µM
CC(C)NCC(N)c1ccc(F)c(Oc2ccccc2)c1F (stereo not shown) [Example 19, dihydrochloride]	9.8
CC[C@@H](N)c1ccc(Cl)c(Oc2ccc(/C=N/O)cc2)c1F	0.72

(A) CC[C@H](N)c1ccc(Cl)c(Oc2cccc(CO)c2)c1F
(B) CC[C@@H](N)c1ccc(Cl)c(Oc2ccnc(Cl)c2)c1F
Hi, I'm comparing two records. Which one has the lower IC50, A or B ? Could you answer with the label of the item you picked?
A
(A: 0.63 µM, B: 6.1 µM)
